- Test system: Hepatitis B virus
- procedure.details: Antiviral activity against HBV infected in human HepG2.2.15 cells
- Assay type: functional, organism-based
property: pEC50
Just the number, please; pEC50 means minus log10 of the concentration in mol/L.

Requested read-out pEC50, target or system Hepatitis B virus, entry CCOC(=O)C1=C(CN2CCOCC2)NC(c2nccs2)=N[C@H]1c1ccc(F)cc1Br
9.00

* * *

- Tested on: Hepatitis B virus
- procedure.details: Antiviral activity against HBV infected in human HepG2.2.15 cells assessed as reduction in HBeAg level measured after 144 hrs by ELISA
- Type: functional, organism-based
- applied.conditions: HepG2.2.15, 144 h
property: EC50 (µM)
Express the result in µM but write the number alone.

Name the recorded EC50 for C=C(C)[C@@H]1CC[C@]2(C(=O)OC)CC[C@]3(COC(=O)c4ccccc4)[C@H](CC[C@@H]4[C@@]5(C)CC[C@H](OC(C)=O)C(C)(C)[C@@H]5CC[C@]43C)[C@H]12 .
8.9
